# MFI listing for each entry below
target: T1, human IGF-1R (native, on cells) (human, UniProt P08069 31-1367); assay: FACS, Tf hIGF1R+ cells, Ab 5 ug/ml
T1 construct: also called hIGF-1R; native IGF-1R on MCF-7 cells
Lab book: enter the figure in MFI, no units written.

Some entries whose results are on file:
BINDER	MFI / MFI
m214F8 (antibody, V domains shown, murine mAb, hybridoma CNCM I-4775, group G2) VH: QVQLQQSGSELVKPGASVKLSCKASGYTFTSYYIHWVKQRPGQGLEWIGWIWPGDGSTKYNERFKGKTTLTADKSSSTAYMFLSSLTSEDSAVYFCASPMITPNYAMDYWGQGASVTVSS VL: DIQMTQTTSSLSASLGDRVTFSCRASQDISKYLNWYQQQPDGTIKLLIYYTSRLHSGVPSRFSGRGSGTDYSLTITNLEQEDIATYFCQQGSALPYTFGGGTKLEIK	2140
m212A11 (antibody, V domains shown, murine mAb, hybridoma CNCM I-4773, group G2) VH: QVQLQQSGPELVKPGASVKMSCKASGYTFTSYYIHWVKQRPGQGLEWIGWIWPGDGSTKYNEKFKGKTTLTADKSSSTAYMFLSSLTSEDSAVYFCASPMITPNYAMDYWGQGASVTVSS VL: DIQMTQTTSSLSASLGDRVTISCRASQDINKYLNWYQQQPDGTVKLLIYYTSRLHSGVPSRFSGRGSGTDYSLTISNLEQEDIATYFCQQGSTLPYTFGGGTKLEIK	2190
m208F2 (antibody, V domains shown, murine mAb, hybridoma CNCM I-4757, group G2; also called murine 208F2) VH: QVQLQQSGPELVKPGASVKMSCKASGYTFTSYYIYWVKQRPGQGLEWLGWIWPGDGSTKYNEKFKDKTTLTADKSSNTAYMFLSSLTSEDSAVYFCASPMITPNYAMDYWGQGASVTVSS VL: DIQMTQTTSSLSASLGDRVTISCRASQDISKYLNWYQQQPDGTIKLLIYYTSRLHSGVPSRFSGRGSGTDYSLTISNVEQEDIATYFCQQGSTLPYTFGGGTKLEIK	2200
m213B10 (antibody, V domains shown, murine mAb, hybridoma CNCM I-4774, group G2) VH: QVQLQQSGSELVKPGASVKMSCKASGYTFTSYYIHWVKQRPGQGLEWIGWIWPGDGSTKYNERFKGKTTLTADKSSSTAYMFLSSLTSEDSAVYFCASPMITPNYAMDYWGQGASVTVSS VL: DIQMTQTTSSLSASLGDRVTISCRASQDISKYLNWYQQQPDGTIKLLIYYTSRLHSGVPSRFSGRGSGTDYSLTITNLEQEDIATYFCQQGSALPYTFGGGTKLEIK	2060

Read the next record carefully.
*Q* Dear colleague, I am looking for the recorded MFI of the following binder: m219D6 (antibody, V domains shown, murine mAb, hybridoma CNCM I-4736, group G2) VH: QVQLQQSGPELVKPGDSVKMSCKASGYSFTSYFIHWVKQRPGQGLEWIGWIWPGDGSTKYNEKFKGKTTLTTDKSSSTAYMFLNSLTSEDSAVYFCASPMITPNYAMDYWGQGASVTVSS VL: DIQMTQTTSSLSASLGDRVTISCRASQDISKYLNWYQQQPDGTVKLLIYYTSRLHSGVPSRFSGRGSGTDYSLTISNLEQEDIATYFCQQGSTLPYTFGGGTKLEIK
*A* 2110
